experiment: protein stability index of a GFP-peptide fusion (GPS, HEK-293T) (PSI 1-6); higher = more stable; conditions: treatment: MLN4924 1 uM, 8 h; c terminus: a fixed tail appended;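 note: 24-mer peptide tiles fused after GFP, lentivirally expressed, FACS-sorted into six equal bins by GFP/DsRed ratio, decoded by Illumina sequencing, PSI is the read-weighted mean bin number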
Below: a set of entries, each annotated with reported protein stability index.
// return a plain number; no unit text

Please review the entries below; each comes with its answer.
sequence_code="MNSLLIGELSPEQPSFEPTKNKEL [FADS1]" observation_type="protein stability index" recorded_number=4.8
sequence_code="NFQNIPKETELPFPKQILDQNNVI [MIA2]" observation_type="protein stability index" recorded_number=3.45

Now consider a different sequence.
Req: Identify measured protein stability index associated with ELRVLADTYDSVYLHPNSYSCACL [HDAC6]
Resp: 2.04

====

test: protein stability index of a GFP-peptide fusion (GPS, HEK-293T) (PSI 1-6); higher = more stable; conditions: treatment: DMSO; c terminus: a fixed tail appended
Assign true whenever protein stability index does not fall below 3; assign false whenever it does.

Recorded results for 8 sequences are shown here.
sequence_code="LEYRFYEQLGSGDGIPQVYYFGPC [CSNK1G3]" discrete_label=false
sequence_code="ELFEDIVAREYYSEADASHCIQQI [CAMK2B]" discrete_label=false
sequence_code="TQLKIENNPFAKGFRGSDDMELHR [TBX5]" discrete_label=true
sequence_code="EQYDLATKRVRQLLDLDPEVECLK [GOLPH3]" discrete_label=true
sequence_code="LGQHMVEQLLARGYAVNVFDIQQG [NSDHL]" discrete_label=false
sequence_code="TKKGFYSLSVRHRQVKHYRIFRLP [SLA]" discrete_label=false
sequence_code="RLPTDSHFPYDLHLRSQSLTMQDE [NEUROD6]" discrete_label=true
sequence_code="KLQKEKEELERRFEDEVKRLGWQQ [MTUS2]" discrete_label=true

Turning to the following sequence.
Req: Please indicate if the recorded protein stability index for VFLVSCALPDSVLRRFVVRTMCAV [AUP1] meets or exceeds 3.
Resp: false

====

Below: a set of entries, each annotated with reported protein stability index.
assay: protein stability index of a GFP-peptide fusion (GPS, HEK-293T) (PSI 1-6); higher = more stable; conditions: treatment: DMSO; c terminus: a fixed tail appended
// return a plain number; no unit text

sequence_code="KEFTLLLSAANVCLDPIIYFFLCQ [P2RY14]" recorded_number=3.06

Req: Identify measured protein stability index associated with PILKRKLPGSDVSGRLMGSPPVPG [FBXO28]
Resp: 3.9

Req: Identify measured protein stability index associated with GDWHSPTLIREKSFGACLREETPR [ELOA2]
Resp: 3.61

Req: Identify measured protein stability index associated with LLEEEEKQWGPLEREPVRGQCLDS [RTN2]
Resp: 5.1

====

Below: a set of entries, each annotated with reported protein stability index.
assay: protein stability index of a GFP-peptide fusion (GPS, HEK-293T) (PSI 1-6); higher = more stable; conditions: treatment: MLN4924 1 uM, 8 h; c terminus: a fixed tail appended
// return a plain number; no unit text

Please review the entries below; each comes with its answer.
sequence_code="KDMNFLKRYAGREEHWVGLKKEPG [CD69]" observation_type="protein stability index" recorded_number=3.79
sequence_code="KLSAKSLQTLRSFSHTLVSLSLFG [ZER1]" observation_type="protein stability index" recorded_number=2.95
sequence_code="LDRERAAANEQLTRAILRERICSE [CHCHD3]" observation_type="protein stability index" recorded_number=4.1

Now consider a different sequence.
Req: Identify measured protein stability index associated with EDKIFPVPEEPPVKKLMRTSTPPP [ZBED1]
Resp: 4.61
